Test system: SNB-75 CNS
assay_remarks: NCI tumour cell line growth inhibition, 48 h; in the data active means GI50 below about 0.43 µM; inactive means the rest
Can you answer with just one of these options? active, inactive

Illustrative cases are given below, each with its answer.
{"columns": ["molecule", "target_or_test_system", "assigned_class"],
 "data": [
  ["C#C[C@]1(O)CC[C@H]2[C@@H]3CC=C4c5sc(Nc6ccccc6)nc5CC[C@]4(C)[C@H]3CC[C@@]21C", "SNB-75 CNS", "inactive"],
  ["CC(=O)Oc1ccc(Nc2c3ccccc3nc3ccccc23)cc1", "SNB-75 CNS", "inactive"],
  ["CCN(CC)CCNCC(=O)Oc1ccc(/C=C/C(=O)CC(=O)/C=C/c2ccc(OC(=O)CNCCN(CC)CC)c(OC)c2)cc1OC", "SNB-75 CNS", "inactive"],
  ["COC(=O)[C@@H](NC(=O)[C@@H](OC)[C@@H]1Cc2cc3cc(OC4CC(OC5CC(O)C(O)C(C)O5)C(O)C(C)O4)c(C)c(O)c3c(O)c2C(=O)[C@H]1OC1CC(OC2CC(OC3CC(C)(O)C(O)C(C)O3)C(O)C(C)O2)C(O)C(C)O1)C(C)C (some centres undefined)", "SNB-75 CNS", "active"]
]}

Prompt: # fetch the recorded call for Nc1ccncc1/C=C1/C(=O)Nc2ccccc21 here
Response: inactive
